Source: the Human Domainome abundance scans (Beltran et al. 2025)

As shown below, each of these variants has a reported abundance fitness value.
B1: Ventral anterior homeobox 1, residues 102 to 157; numbered along this chain, Q5SQQ9 (parent)
chain: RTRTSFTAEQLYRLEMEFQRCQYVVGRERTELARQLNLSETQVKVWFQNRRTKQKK

# Variants of: B1
# method_summary: abundance fitness (aPCA) (normalised: wild type 0, dead -1); higher = more abundant; growth selection in yeast, the domain comes from the species named
# details: Homo sapiens

Noted for L38Q : its abundance fitness reads -0.91

Noted for K56G : its abundance fitness reads 0.324

Noted for L36P : its abundance fitness reads -0.711

Noted for R27V : its abundance fitness reads -0.01

Noted for E40L : its abundance fitness reads -0.711

Noted for T30W : its abundance fitness reads -0.117

Noted for T7R : its abundance fitness reads -0.499

Noted for K53Y : its abundance fitness reads 0.292

Noted for T30L : its abundance fitness reads -0.427

Noted for R50K : its abundance fitness reads -0.041
